# target-desc: TLR4 (toll-like receptor 4) (Homo sapiens, UniProt O00206)
# Sequence (O00206 24-839): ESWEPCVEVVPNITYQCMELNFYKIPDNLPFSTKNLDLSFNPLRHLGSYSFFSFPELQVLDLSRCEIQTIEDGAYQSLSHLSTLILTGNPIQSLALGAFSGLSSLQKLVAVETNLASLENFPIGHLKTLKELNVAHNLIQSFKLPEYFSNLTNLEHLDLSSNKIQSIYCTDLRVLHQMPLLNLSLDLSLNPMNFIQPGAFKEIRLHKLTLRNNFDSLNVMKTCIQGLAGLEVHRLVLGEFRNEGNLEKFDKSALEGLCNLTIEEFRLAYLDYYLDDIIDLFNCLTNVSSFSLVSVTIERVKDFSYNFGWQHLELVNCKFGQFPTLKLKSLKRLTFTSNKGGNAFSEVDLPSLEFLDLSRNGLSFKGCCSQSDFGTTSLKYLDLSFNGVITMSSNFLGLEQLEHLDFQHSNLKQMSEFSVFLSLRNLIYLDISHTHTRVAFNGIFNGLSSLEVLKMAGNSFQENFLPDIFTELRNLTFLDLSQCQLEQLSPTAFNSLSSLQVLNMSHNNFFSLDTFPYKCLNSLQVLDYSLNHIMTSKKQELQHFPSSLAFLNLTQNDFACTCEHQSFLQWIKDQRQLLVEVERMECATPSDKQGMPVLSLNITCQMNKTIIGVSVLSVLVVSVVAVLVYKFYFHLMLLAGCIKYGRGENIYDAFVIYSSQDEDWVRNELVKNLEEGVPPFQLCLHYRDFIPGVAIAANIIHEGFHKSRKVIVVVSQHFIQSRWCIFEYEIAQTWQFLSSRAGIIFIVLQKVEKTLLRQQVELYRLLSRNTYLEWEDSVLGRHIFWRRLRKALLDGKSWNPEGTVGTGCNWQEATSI
# method: TLR4 ELISA on lysates of human PBMCs treated with AVR-25 for […] h, dose response
observable: IC50 (nM)
API: value field is a number in nM; no unit string.

Q) Would you kindly share the measured IC50 for `CC(=O)N[C@H]1[C@H](OC2CCCCC2)O[C@H](CO)[C@@H](O[C@@H]2O[C@H](CO)[C@@H](O)[C@H](O)[C@H]2NC(C)=O)[C@@H]1O` ?
A) 150

These data points were gathered from paper PMC6393422.
